Tested on: SW-620 colon
Assay remarks: NCI tumour cell line growth inhibition, 48 h
Here, each record is paired with measured TGI data.
Your answer should be a plain number; it is taken to be in µM.

CCc1cccc(CC)c1NC(=O)C(C#N)C1=C(Cl)C(=O)c2ccccc2C1=O (stereo not given) | 31.2

Incoming: Any idea what its TGI is? The molecule is Nc1ccc(C(=O)NN2C(=O)[C@H](Cl)C2c2ccc(Cl)cc2)cc1 (stereo not given in full)
Outgoing: 4.96

====

Tested on: HL-60(TB) leukemia
Assay remarks: NCI tumour cell line growth inhibition, 48 h
Quantity measured: TGI

NC1=NS(=O)(=O)Nc2nc(-c3ccc(Cl)cc3)[nH]c21 | > 100 µM
CC(C)C[C@H](NC(=O)Cn1ccc(Nc2ccccc2)cc1=O)B(O)O | 72.6 µM

Turning now to a further compound:
Incoming: For the compound shown here, O=S(/C=C/C=C/S(=O)(=O)c1ccccc1)c1ccccc1 (stereo not drawn) , give the reported TGI.
Outgoing: 0.909 µM
